Target: Protein O-GlcNAcase (Homo sapiens)
Sequence (whole entry): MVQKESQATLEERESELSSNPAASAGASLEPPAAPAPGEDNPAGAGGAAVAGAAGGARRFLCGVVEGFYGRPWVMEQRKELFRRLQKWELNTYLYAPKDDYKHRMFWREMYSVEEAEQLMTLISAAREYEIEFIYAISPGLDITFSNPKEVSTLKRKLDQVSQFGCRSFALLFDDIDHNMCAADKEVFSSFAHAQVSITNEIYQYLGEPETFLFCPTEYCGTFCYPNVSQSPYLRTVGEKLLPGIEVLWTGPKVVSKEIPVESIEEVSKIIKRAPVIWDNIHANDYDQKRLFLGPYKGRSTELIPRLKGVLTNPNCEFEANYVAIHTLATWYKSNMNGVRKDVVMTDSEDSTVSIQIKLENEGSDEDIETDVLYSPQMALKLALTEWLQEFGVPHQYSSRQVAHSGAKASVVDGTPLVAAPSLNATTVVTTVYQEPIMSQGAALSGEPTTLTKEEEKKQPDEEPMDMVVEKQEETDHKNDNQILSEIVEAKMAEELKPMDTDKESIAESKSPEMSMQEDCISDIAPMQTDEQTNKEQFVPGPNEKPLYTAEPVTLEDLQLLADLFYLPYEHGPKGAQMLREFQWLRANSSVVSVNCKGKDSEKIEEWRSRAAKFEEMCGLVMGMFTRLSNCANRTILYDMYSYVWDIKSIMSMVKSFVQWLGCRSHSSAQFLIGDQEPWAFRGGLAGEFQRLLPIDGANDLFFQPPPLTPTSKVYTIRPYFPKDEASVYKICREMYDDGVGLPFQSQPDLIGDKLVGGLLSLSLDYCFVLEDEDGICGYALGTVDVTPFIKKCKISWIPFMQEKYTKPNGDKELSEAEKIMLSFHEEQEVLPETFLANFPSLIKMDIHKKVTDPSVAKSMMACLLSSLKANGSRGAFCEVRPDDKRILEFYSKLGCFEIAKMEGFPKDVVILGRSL
Test: Inhibition of recombinant human OGA expressed in Escherichia coli BL21(DE3) at 100 uM using 4-MU-GlcNAc as substrate measured after 30 mins by fluorescence assay relative to control
Observation Type: inhibition (%)

| Smiles Text | Experimental Target | inhibition / % |
| --- | --- | --- |
| CC(=O)N[C@H]1/C(=N/OC(=O)Nc2ccccc2)O[C@H](CO)[C@@H](O)[C@@H]1O | Protein O-GlcNAcase (Homo sapiens) | 98.9 |

1 = CC(=O)N[C@@H]1[C@@H](O)[C@H](O)[C@@H](CO)O[C@H]1SCC(=O)NCCCN1C(=O)c2cccc3cccc(c23)C1=O
2 = NN1C(=O)c2cccc3cccc(c23)C1=O
Qu. Between item 1 and item 2 , which reported inhibition is smaller? Answer by quoting the chosen item's label.
Ans. 2
(2: 22.2%, 1: 97.6%)

a = CC(=O)N[C@@H]1[C@@H](O)[C@H](O)[C@@H](CO)O[C@H]1SCCC(=O)NCCCN1C(=O)c2cccc3cccc(c23)C1=O
b = CC(=O)N[C@@H]1[C@@H](O)[C@H](O)[C@@H](CO)O[C@H]1SCCCCCCn1cc(CN2C(=O)c3cccc4cccc(c34)C2=O)nn1
c = CC(=O)N[C@@H]1[C@@H](O)[C@H](O)[C@@H](CO)O[C@H]1S
d = CC(=O)N[C@@H]1[C@@H](O)[C@H](O)[C@@H](CO)O[C@H]1SCC(=O)NCCN1C(=O)c2cccc3cccc(c23)C1=O
Qu. I would appreciate it if you could sort these 4 molecules by inhibition, starting from the smallest number. Field: ranking. Enter the labels in the order requested.
Ans. c, b, d, a
(c: 12%, b: 25.7%, d: 38.6%, a: 59.4%)

1 = CC(=O)N[C@@H]1[C@@H](O)[C@H](O)[C@@H](CO)O[C@H]1SCCn1cc(CN2C(=O)c3cccc4cccc(c34)C2=O)nn1
2 = CC(=O)N[C@@H]1[C@@H](O)[C@H](O)[C@@H](CO)O[C@H]1SCn1cc(CN2C(=O)c3cccc4cccc(c34)C2=O)nn1
3 = CC(=O)N[C@@H]1[C@@H](O)[C@H](O)[C@@H](CO)O[C@H]1SCCC(=O)NCCN1C(=O)c2cccc3cccc(c23)C1=O
Qu. # rank by inhibition, ascending (min first) Your answer should be the labels, listed in the requested order.
Ans. 2, 1, 3
